The reported measurements were obtained from patent US20250206809A1.

- system.under.test: CS19 on an ETEC strain (enterotoxigenic Escherichia coli)
- assay.explanation: cell-based or functional assay

{"binder": "VHH antibody 1D7 (monomeric nanobody) (VHH) VHH: EVQLVESGGGLVQAGGSLTLSCAASERTFSYYVMAWFRQAPGKEREFVAGISMSGDSTKYADSVKGRFTISRDNAENTGYLQMNGLKPEDTAVYYCAADRDIRGNFRSWGRGTQVTVSS", "MRHA IC100 / µg/mL": 100}
{"binder": "VHH antibody 1H4 (monomeric nanobody) (VHH) VHH: EVQLVESGGGLVQAGGSLRLSCAASSRTFNHYNIGWFRQAPGKEREFAAAITWNGRSTLYADSVKGRFTISRDNAKNTVYLQMNSLKPEDTAVYYCATLTTWEHKWEYNSQGQGTQVTVSS", "MRHA IC100 / µg/mL": 100}
{"binder": "VHH antibody 2R23 (monomeric nanobody) (VHH, Yeast-library clone, expressed in the E. coli periplasm) VHH: QVQLQESGGGLVQAGGSLRLSCAASGYIFWSYGYMGWYRQAPGKERELVATISRGGTTNYADSVKGRFTISRDNAKNTVYLQMNSLKPEDTAVYYCAAGRYAFGYFKYWGQGTQVTVSS", "MRHA IC100 / µg/mL": 200}
{"binder": "VHH antibody 2R215 (monomeric nanobody) (VHH, Yeast-library clone, expressed in the E. coli periplasm and purified by Ni-NTA; also called monomeric 2R215; monomeric VHH 2R215) VHH: QVQLQESGGGLVQAGGSLRLSCAASGNIFQDAEMGWYRQAPGKEREFVATIAYGGNTNYADSVKGRFTISRDNAKNTVYLQMNSLKPEDTAVYYCAVYTGVYYDRTTGGYVAFEYWGQGTQVTVSS", "MRHA IC100 / µg/mL": 200}
